Below is a list of entries, each paired with its recorded binding signal value.
Biological target: T1, UNK ZnF1-3 (human, UniProt Q9C0B0 31-174)
T1 sequence: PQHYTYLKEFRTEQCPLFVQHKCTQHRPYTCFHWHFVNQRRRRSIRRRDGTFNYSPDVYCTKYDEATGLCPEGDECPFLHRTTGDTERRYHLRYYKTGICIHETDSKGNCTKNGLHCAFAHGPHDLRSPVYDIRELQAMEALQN
Assay: nsRBNS (natural sequence RNA bind-n-seq); RBNS binding buffer (assumed for nsRBNS): 25 mM Tris pH 7.5, 150 mM KCl, 3 mM MgCl2, 0.01% Triton X-100, 500 ug/ml BSA, 20 U/ml SUPERase-In, 4 C; UNK is unkempt and MSI1 is Musashi-1; names of the RNAs are library labels; protein concentration not given here; high values mean tight binding
The full ranking holds about 24,000 sequences; the median of “enrichment r” is about 0.99, and the highest 2% start at about 3.7. Only a sample is shown.
readout_kind: binding signal (enrichment R)

>>> experimental_result("chr7:7679991:7679992:-_ENSG00000106399_ENST00000396682|hu_hu|hu_hu_hu_mus_False|18_58 (ssRNA) RNA: GGGAGUUCUACAGUCCGACGAUCUGGGAUGAAUCUUUUCCAGCUUCCCCACGAAGCACACGGGCCGGUCGAUAUACUGAGCUAGCAUGCUGGCGUUGACGCGCGCUUUGGGGAGCUCCAUCAUGUCCUCCAUGAUUCUGCCGCCAACAGAGGAUUGAGCAUCA")
0.939
>>> experimental_result("chr19:16212804:16212805:+_ENSG00000167460_ENST00000300933|hu_mus|hu_hu_hu_mus_False|78_78 (ssRNA) RNA: GGGAGUUCUACAGUCCGACGAUCAACAAUUCUGGAGUGAAGGAAAGAUGUAACAUGCAAUUAAUUAAAAGCUCAGUCAGAAGGCACAUGGGCAACAAUGAUCACCCCAGCAUUCUCGCUUGGAAUGCUUAAAGACAAUCUGUUCAACAGAGGAUUGAGCAUCA")
1.31
